The reported numbers originate from ChEMBL document CHEMBL1144645.

test target: Epidermal growth factor receptor and ErbB2 (HER1 and HER2) (Homo sapiens) (UniProt P04626+P00533)
assay text: Selectivity for erbB2 over EGFR
Assay type: protein assay
measure: Selectivity ratio
One number for each entry.

COCC(=O)NCC#Cc1ccc2ncnc(Nc3ccc(OC4CCN(C(=O)c5cccc(Cl)c5)CC4)c(C)c3)c2c1 ... 92

We next turn to a different molecule, shown below.
Req: Give the reported value of Selectivity ratio for this record: COc1cc2ncnc(Nc3ccc(Oc4ccc(C(=O)NCC(C)(C)C)cc4)c(C)c3)c2cc1OC
Resp: 1

----------
Kindly supply the reported Selectivity ratio values for the records listed here.
test target: Epidermal growth factor receptor and ErbB2 (HER1 and HER2) (Homo sapiens) (UniProt P04626+P00533)
assay text: Selectivity for erbB2 over EGFR
Type: protein assay

Cc1cc(Nc2ncnc3ccc(OCCCN4CCOCC4)cc23)ccc1OC1CCN(C(=O)CC(C)(C)C)CC1 ... > 290
COCCOc1ccc2ncnc(Nc3ccc(OC4CCN(C(=O)CC(C)(C)C)CC4)c(C)c3)c2c1 ... > 500
CNc1cc2c(Nc3ccc(Oc4ccc(C(=O)NCC(C)(C)C)cc4)c(C)c3)ncnc2cn1 ... 230

Req: Give the reported Selectivity ratio for this compound. COc1cc2ncnc(Nc3ccc(OC4CCN(C(=O)CC(C)(C)C)CC4)c(C)c3)c2cc1OC
Resp: > 130

----------
test target: Epidermal growth factor receptor and ErbB2 (HER1 and HER2) (Homo sapiens) (UniProt P04626+P00533)
assay text: Selectivity for erbB2 over EGFR
Assay type: protein assay
measure: Selectivity ratio
Numbers only.

Cc1cc(Nc2ncnc3cnc(NCCN4CCOCC4)cc23)ccc1Oc1ccc(C(=O)NCC(C)(C)C)cc1 ... 230

Okay, now this compound:
Req: Return the recorded Selectivity ratio value; entry: Cc1cc(Nc2ncnc3cnc(N4CCOCC4)cc23)ccc1OC1CCN(C(=O)Nc2c(F)cccc2F)CC1
Resp: 210

----------
Provide the recorded pIC50 for the entries that follow.
test target: Receptor tyrosine-protein kinase erbB-2 (Homo sapiens)
assay text: Inhibition of erbB2 expressed in Sf9 cells
pIC50: −log10 of the molar value.

Use the examples below as a reference point.
COCC(=O)NCC#Cc1ccc2ncnc(Nc3ccc(Oc4ccc(C(=O)Nc5ccccc5)cc4)c(C)c3)c2c1 ... < 5.00
COCC(=O)NCC#Cc1ccc2ncnc(Nc3ccc(OC4CCN(C)CC4)c(C)c3)c2c1 ... < 5.00
COCC(=O)NCC#Cc1ccc2ncnc(Nc3ccc(OC4CCNCC4)c(C)c3)c2c1 ... < 5.00

Consider the following items and state reported pIC50 for each.
1. COCC(=O)NCC#Cc1ccc2ncnc(Nc3ccc(Oc4ccc(C(=O)NC(C)(C)C)cc4)c(C)c3)c2c1
2. CNC(=O)c1ccc(Oc2ccc(Nc3ncnc4ccc(C#CCNC(=O)COC)cc34)cc2C)cc1

Resp:
["< 5.00", "< 5.00"]

----------
test target: Receptor tyrosine-protein kinase erbB-2 (Homo sapiens, UniProt P04626)
Sequence (P04626 whole entry): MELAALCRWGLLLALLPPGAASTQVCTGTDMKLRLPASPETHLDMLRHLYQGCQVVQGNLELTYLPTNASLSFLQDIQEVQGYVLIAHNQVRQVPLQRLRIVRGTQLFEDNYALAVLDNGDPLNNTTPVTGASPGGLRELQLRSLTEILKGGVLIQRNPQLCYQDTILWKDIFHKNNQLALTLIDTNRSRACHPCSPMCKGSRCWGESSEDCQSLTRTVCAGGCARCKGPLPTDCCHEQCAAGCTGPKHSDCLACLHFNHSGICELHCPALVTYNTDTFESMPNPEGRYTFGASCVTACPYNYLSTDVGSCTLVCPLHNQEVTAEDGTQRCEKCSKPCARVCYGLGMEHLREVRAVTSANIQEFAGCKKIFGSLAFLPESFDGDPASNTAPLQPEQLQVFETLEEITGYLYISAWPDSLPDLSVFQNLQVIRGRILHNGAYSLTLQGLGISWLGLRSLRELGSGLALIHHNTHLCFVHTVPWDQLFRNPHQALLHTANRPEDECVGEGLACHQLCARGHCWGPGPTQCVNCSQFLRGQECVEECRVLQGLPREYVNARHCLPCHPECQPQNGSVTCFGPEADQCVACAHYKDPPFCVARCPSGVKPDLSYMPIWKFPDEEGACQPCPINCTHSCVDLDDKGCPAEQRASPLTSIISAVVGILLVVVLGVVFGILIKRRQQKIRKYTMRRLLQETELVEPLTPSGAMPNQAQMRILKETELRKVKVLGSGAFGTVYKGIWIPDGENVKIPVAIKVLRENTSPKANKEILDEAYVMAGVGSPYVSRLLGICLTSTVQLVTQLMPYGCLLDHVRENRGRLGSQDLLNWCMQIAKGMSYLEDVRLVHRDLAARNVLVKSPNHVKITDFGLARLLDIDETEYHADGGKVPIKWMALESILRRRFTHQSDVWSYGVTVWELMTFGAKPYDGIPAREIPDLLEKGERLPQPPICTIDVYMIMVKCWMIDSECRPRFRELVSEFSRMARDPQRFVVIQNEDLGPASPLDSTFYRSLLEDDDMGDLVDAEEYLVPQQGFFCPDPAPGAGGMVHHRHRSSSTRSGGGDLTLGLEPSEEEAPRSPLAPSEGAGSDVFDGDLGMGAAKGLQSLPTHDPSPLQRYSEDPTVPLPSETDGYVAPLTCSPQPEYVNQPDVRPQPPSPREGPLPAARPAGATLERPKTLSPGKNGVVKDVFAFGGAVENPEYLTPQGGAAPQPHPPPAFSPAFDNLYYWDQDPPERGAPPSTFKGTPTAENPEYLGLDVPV
assay text: Inhibition of erbB2 expressed in Sf9 cells
Record form. Attribute: pIC50. Fill in for each entry.
One number for each entry, as −log10 of the molar value.

Below, 3 molecules whose answers are already recorded.
Cc1cc(Nc2ncnc3ccc(OCCCN4CCOCC4)cc23)ccc1OC1CCN(C(=O)Nc2c(F)cccc2F)CC1 ... 7.26
Cc1cc(Nc2ncnc3cnc(N4CCOCC4)cc23)ccc1Oc1ccc(C(=O)NCC(C)(C)C)cc1 ... 7.68
COc1cc2ncnc(Nc3ccc(Oc4ccc(C(=O)NCC(C)(C)C)cc4)c(C)c3)c2cc1OC ... 7.11

Req: Give recorded pIC50. COCC(=O)NCC#Cc1ccc2ncnc(Nc3ccc(OC4CCN(C(=O)C5CCCO5)CC4)c(C)c3)c2c1 (stereo not given)
Resp: 6.26
